These entries and their values trace back to BindingDB's records for doi:10.1016/s0014-2999(01)01087-1.

# system_under_test: 5-hydroxytryptamine receptor 1D (Homo sapiens, UniProt P28221)
# Sequence (P28221 whole entry): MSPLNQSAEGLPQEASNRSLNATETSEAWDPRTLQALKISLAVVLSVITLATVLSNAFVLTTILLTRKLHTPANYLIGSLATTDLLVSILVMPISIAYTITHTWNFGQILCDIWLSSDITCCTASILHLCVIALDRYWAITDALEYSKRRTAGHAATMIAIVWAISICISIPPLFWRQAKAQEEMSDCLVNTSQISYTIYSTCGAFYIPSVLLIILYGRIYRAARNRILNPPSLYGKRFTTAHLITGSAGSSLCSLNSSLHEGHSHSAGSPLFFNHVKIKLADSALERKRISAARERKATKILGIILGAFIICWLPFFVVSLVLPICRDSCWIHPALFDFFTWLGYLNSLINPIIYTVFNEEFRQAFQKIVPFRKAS
pKi: −log10 of the molar value.
metric: pKi

Problem: Consider the compound shown here: "COCCCN1CCC(NC(=O)c2cc(Cl)c(N)c3c2OCC3)CC1" What is its recorded pKi?
Solution: < 5.00

====

# system_under_test: Beta-2 adrenergic receptor (Homo sapiens, UniProt P07550)
# Sequence (P07550 whole entry): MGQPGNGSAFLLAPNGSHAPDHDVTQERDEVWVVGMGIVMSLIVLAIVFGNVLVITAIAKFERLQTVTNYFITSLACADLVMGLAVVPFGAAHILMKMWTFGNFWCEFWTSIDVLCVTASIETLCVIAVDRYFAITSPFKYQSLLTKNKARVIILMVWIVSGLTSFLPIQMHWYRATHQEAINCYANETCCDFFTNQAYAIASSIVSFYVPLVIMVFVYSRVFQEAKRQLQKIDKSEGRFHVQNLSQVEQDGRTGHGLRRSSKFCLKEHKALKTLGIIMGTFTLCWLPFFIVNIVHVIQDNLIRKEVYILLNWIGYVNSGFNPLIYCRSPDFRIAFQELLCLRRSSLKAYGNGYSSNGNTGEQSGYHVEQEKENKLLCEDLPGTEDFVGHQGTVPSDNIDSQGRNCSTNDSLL
pKi: −log10 of the molar value.
metric: pKi

Problem: Consider the compound shown here: "COCCCN1CCC(NC(=O)c2cc(Cl)c(N)c3c2OCC3)CC1" What is its recorded pKi?
Solution: < 5.00

====

# system_under_test: 5-hydroxytryptamine receptor 7 (Homo sapiens, UniProt P34969)
# Sequence (P34969 whole entry): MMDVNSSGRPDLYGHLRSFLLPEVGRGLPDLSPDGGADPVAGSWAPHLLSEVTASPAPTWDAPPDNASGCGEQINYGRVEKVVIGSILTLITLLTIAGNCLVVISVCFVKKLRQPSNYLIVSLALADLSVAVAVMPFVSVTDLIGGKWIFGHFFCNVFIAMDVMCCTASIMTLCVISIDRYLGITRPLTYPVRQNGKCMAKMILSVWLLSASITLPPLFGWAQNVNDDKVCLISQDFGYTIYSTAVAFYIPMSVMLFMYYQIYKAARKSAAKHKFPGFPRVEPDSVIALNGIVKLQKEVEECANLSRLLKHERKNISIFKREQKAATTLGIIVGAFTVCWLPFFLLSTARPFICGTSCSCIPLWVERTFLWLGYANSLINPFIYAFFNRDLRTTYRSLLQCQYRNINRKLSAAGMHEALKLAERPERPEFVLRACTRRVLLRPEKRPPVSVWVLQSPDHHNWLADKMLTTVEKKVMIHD
pKi: −log10 of the molar value.
metric: pKi

Problem: Consider the molecule shown here: "COCCCN1CCC(NC(=O)c2cc(Cl)c(N)c3c2OCC3)CC1" What is its recorded pKi?
Solution: < 5.00

====

# system_under_test: UniProt P35439
metric: Ki

Problem: Consider the molecule shown here: "COCCCN1CCC(NC(=O)c2cc(Cl)c(N)c3c2OCC3)CC1" What is its recorded Ki?
Solution: > 10 µM

====

# system_under_test: D(4) dopamine receptor (Homo sapiens, UniProt P21917)
# Sequence (P21917 whole entry): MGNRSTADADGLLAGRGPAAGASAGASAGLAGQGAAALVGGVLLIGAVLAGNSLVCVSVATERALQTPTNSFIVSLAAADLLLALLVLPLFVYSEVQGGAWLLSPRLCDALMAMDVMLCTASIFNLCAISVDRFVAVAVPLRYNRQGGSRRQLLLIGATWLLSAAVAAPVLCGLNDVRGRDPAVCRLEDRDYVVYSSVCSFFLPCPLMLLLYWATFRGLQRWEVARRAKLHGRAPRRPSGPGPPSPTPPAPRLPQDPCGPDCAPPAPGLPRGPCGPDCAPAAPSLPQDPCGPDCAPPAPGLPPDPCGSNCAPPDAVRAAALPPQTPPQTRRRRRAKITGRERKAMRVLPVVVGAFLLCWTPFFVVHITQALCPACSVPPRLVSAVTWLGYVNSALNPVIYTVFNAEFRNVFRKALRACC
metric: pKi
pKi is a log-scale quantity: -log10 of the concentration expressed in molar.

Problem: Consider the compound shown here: "COCCCN1CCC(NC(=O)c2cc(Cl)c(N)c3c2OCC3)CC1" What is its recorded pKi?
Solution: 5.63

====

# system_under_test: Alpha-2C adrenergic receptor (Homo sapiens)
# Sequence (P18825 whole entry): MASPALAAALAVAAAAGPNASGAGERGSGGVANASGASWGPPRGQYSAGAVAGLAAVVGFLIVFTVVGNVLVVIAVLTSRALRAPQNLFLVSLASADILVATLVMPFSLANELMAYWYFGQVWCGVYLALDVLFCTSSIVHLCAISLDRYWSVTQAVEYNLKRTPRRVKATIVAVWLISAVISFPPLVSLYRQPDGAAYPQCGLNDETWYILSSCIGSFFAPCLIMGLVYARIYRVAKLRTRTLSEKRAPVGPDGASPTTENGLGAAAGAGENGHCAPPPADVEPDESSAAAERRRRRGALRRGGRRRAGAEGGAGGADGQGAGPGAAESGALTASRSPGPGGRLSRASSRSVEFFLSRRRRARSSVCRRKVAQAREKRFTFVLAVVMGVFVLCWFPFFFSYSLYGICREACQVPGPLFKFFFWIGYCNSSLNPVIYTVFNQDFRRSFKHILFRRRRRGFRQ
pKi: −log10 of the molar value.
metric: pKi

Problem: Consider the molecule shown here: "COCCCN1CCC(NC(=O)c2cc(Cl)c(N)c3c2OCC3)CC1" What is its recorded pKi?
Solution: < 5.00

====

# system_under_test: Substance-P receptor (Homo sapiens)
# Sequence (P25103 whole entry): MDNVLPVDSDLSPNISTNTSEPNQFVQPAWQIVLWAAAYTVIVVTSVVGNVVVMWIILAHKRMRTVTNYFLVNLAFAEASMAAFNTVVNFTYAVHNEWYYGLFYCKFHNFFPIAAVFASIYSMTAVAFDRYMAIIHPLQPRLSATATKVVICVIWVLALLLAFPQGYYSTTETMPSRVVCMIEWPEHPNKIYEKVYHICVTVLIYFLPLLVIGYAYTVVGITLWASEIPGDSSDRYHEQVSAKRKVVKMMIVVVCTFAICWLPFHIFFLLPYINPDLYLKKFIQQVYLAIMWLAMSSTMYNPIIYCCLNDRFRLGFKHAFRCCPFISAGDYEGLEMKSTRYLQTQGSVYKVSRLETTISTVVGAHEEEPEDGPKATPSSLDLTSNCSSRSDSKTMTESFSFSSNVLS
pKi: −log10 of the molar value.
metric: pKi

Problem: Consider the compound shown here: "COCCCN1CCC(NC(=O)c2cc(Cl)c(N)c3c2OCC3)CC1" What is its recorded pKi?
Solution: < 5.00

====

# system_under_test: Norepinephrine transporter (Rattus norvegicus, UniProt Q9JIA2)
pKi: −log10 of the molar value.
metric: pKi

Problem: Consider the compound shown here: "COCCCN1CCC(NC(=O)c2cc(Cl)c(N)c3c2OCC3)CC1" What is its recorded pKi?
Solution: < 5.00

====

# system_under_test: Gastrin/cholecystokinin type B receptor (Rattus norvegicus)
# Sequence (P30553 whole entry): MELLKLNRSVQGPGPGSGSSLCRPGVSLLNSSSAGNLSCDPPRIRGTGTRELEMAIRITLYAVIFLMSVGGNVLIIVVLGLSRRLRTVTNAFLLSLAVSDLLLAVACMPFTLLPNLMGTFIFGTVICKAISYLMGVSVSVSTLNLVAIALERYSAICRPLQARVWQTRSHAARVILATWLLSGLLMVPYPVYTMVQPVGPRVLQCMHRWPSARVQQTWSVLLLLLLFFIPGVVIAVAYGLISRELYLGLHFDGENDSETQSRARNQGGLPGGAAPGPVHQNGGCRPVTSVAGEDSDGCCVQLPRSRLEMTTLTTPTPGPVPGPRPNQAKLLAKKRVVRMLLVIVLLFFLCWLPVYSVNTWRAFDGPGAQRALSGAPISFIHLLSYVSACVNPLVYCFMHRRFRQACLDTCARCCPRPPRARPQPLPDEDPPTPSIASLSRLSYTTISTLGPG
metric: Ki

Problem: Short answer please: Ki, Gastrin/cholecystokinin type B receptor (Rattus norvegicus), entry "COCCCN1CCC(NC(=O)c2cc(Cl)c(N)c3c2OCC3)CC1"
Solution: > 10 µM

====

# system_under_test: 5-hydroxytryptamine receptor 2C (Homo sapiens, UniProt P28335)
# Sequence (P28335 whole entry): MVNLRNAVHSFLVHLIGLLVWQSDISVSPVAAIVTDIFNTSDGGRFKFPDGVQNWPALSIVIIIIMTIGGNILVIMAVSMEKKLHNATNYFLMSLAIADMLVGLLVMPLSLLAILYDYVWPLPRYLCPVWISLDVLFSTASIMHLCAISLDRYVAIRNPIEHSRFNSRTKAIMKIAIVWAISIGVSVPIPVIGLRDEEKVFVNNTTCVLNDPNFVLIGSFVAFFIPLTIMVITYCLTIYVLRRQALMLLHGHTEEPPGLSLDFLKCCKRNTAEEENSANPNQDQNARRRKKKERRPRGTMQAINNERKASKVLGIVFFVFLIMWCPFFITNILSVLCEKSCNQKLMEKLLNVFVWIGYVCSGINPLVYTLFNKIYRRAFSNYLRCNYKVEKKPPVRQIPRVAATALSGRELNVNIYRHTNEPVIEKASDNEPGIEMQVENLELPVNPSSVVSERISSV
metric: Ki

Problem: Consider the compound shown here: "COCCCN1CCC(NC(=O)c2cc(Cl)c(N)c3c2OCC3)CC1" What is its recorded Ki?
Solution: > 10 µM
